system: CGTH-W-1 (Thyroid Gland Carcinoma); test: combination Emax (second highest fraction inhibited in the dose matrix, 72 h); higher = more inhibition; extreme values may be limits of the assay
Entries and their combination Emax
observed.property: combination Emax

# molecule, observed.property, measured.value
rows = [
    ("CS(=O)(=O)CCNCc1ccc(-c2ccc3ncnc(Nc4ccc(OCc5cccc(F)c5)c(Cl)c4)c3c2)o1 [Lapatinib] + Cn1cnc2c(F)c(Nc3ccc(Br)cc3Cl)c(C(=O)NOCCO)cc21 [Selumetinib] (first compound max 10 µM, 7x7, partner max 10 µM)", "combination Emax", 0.245),
    ("Cc1cc2ncnn2cc1Nc1ncc2c(n1)n(C1CCOCC1)c(=O)n2C [AZD7648] + O=C(c1cc(Cc2n[nH]c(=O)c3ccccc23)ccc1F)N1CCN(C(=O)C2CC2)CC1 [Olaparib] (first compound max 10 µM, 7x7, partner max 10 µM)", "combination Emax", 0.122),
]

---

system: HCC1428 (Breast Carcinoma); assay: Bliss excess, mean over the matrix (fraction); higher = more synergy
Classification field: rule met = Bliss excess at or over -0.004; rule not met = Bliss excess under -0.004.

# molecule, tested.system, assigned.label
records = [
    ("Cc1c2c(nn1C)CSCc1cc(n(C)n1)CSc1cc(c3ccccc3c1)OCCCc1c(C(=O)O)n(C)c3c-2c(Cl)ccc13 [AZD5991] + C[C@@H]1COCCN1C2=NC(=NC(=C2)C3(CC3)[S@](=N)(=O)C)C4=C5C=CNC5=NC=C4 [AZD6738] (first compound max 1 µM, 7x7, partner max 10 µM)", "HCC1428 (Breast Carcinoma)", "rule not met"),
    ("CCN(CCO)CCCOc1ccc2c(Nc3cc(CC(=O)Nc4cccc(F)c4)[nH]n3)ncnc2c1 [AZD2811] + C=CCn1c(=O)c2cnc(Nc3ccc(N4CCN(C)CC4)cc3)nc2n1-c1cccc(C(C)(C)O)n1 [AZD1775] (first compound max 1 µM, partner max 1 µM)", "HCC1428 (Breast Carcinoma)", "rule not met"),
    ("CN(CCO)CC[C@H](CSc1ccccc1)Nc1ccc(S(=O)(=O)NC(=O)c2ccc(N3CCC([C@@H](O)c4ccccc4-c4ccc(Cl)cc4)CC3)cc2)cc1S(=O)(=O)C(F)(F)F [AZD4320] + C[C@@H]1COCCN1C2=NC(=NC(=C2)C3(CC3)[S@](=N)(=O)C)C4=C5C=CNC5=NC=C4 [AZD6738] (first compound max 1 µM, 7x7, partner max 10 µM)", "HCC1428 (Breast Carcinoma)", "rule met"),
    ("CC1(C)CCC(CN2CCN(c3ccc(C(=O)NS(=O)(=O)c4ccc(NCC5CCOCC5)c([N+](=O)[O-])c4)c(Oc4cnc5[nH]ccc5c4)c3)CC2)=C(c2ccc(Cl)cc2)C1 [Venetoclax] + C=CCn1c(=O)c2cnc(Nc3ccc(N4CCN(C)CC4)cc3)nc2n1-c1cccc(C(C)(C)O)n1 [AZD1775] (first compound max 1 µM, partner max 1 µM)", "HCC1428 (Breast Carcinoma)", "rule not met"),
    ("Cc1c2c(nn1C)CSCc1cc(n(C)n1)CSc1cc(c3ccccc3c1)OCCCc1c(C(=O)O)n(C)c3c-2c(Cl)ccc13 [AZD5991] + CCN(CCO)CCCOc1ccc2c(Nc3cc(CC(=O)Nc4cccc(F)c4)[nH]n3)ncnc2c1 [AZD2811] (first compound max 1 µM, 7x7, partner max 1 µM)", "HCC1428 (Breast Carcinoma)", "rule met"),
    ("CC1(C)CCC(CN2CCN(c3ccc(C(=O)NS(=O)(=O)c4ccc(NCC5CCOCC5)c([N+](=O)[O-])c4)c(Oc4cnc5[nH]ccc5c4)c3)CC2)=C(c2ccc(Cl)cc2)C1 [Venetoclax] + C1CN(CCC1(C(=O)N[C@@H](CCO)C2=CC=C(C=C2)Cl)N)C3=NC=NC4=C3C=CN4 [Capivasertib] (first compound max 1 µM, 7x7, partner max 3 µM)", "HCC1428 (Breast Carcinoma)", "rule not met"),
    ("Cc1c2c(nn1C)CSCc1cc(n(C)n1)CSc1cc(c3ccccc3c1)OCCCc1c(C(=O)O)n(C)c3c-2c(Cl)ccc13 [AZD5991] + C=CCn1c(=O)c2cnc(Nc3ccc(N4CCN(C)CC4)cc3)nc2n1-c1cccc(C(C)(C)O)n1 [AZD1775] (first compound max 1 µM, partner max 1 µM)", "HCC1428 (Breast Carcinoma)", "rule not met"),
    ("COc1nnc2ccc(N3CCC(c4ccc(OCCN5CCN(C)C(=O)[C@H]5C)cc4)CC3)nn12 [AZD5153] + Cn1cnc2c(F)c(Nc3ccc(Br)cc3Cl)c(C(=O)NOCCO)cc21 [Selumetinib] (first compound max 1 µM, 7x7, partner max 10 µM)", "HCC1428 (Breast Carcinoma)", "rule met"),
    ("COc1nnc2ccc(N3CCC(c4ccc(OCCN5CCN(C)C(=O)[C@H]5C)cc4)CC3)nn12 [AZD5153] + CC1(C)CCC(CN2CCN(c3ccc(C(=O)NS(=O)(=O)c4ccc(NCC5CCOCC5)c([N+](=O)[O-])c4)c(Oc4cnc5[nH]ccc5c4)c3)CC2)=C(c2ccc(Cl)cc2)C1 [Venetoclax] (first compound max 1 µM, 7x7, partner max 1 µM)", "HCC1428 (Breast Carcinoma)", "rule not met"),
    ("CN(CCO)CC[C@H](CSc1ccccc1)Nc1ccc(S(=O)(=O)NC(=O)c2ccc(N3CCC([C@@H](O)c4ccccc4-c4ccc(Cl)cc4)CC3)cc2)cc1S(=O)(=O)C(F)(F)F [AZD4320] + CN(C)CCCOc1ccc(-c2ccc3ncc4c(c3c2)n(C2CCOCC2)c(=O)n4C)cn1 [AZD0156] (first compound max 1 µM, 7x7, partner max 1 µM)", "HCC1428 (Breast Carcinoma)", "rule met"),
    ("CCN(CCO)CCCOc1ccc2c(Nc3cc(CC(=O)Nc4cccc(F)c4)[nH]n3)ncnc2c1 [AZD2811] + O=C(c1cc(Cc2n[nH]c(=O)c3ccccc23)ccc1F)N1CCN(C(=O)C2CC2)CC1 [Olaparib] (first compound max 1 µM, 7x7, partner max 10 µM)", "HCC1428 (Breast Carcinoma)", "rule not met"),
    ("Cc1cc2ncnn2cc1Nc1ncc2c(n1)n(C1CCOCC1)c(=O)n2C [AZD7648] + C=CCn1c(=O)c2cnc(Nc3ccc(N4CCN(C)CC4)cc3)nc2n1-c1cccc(C(C)(C)O)n1 [AZD1775] (first compound max 10 µM, partner max 1 µM)", "HCC1428 (Breast Carcinoma)", "rule met"),
]

---

tested on: IM-9 (Non-Cancerous); assay: Bliss excess, mean over the matrix (fraction); higher = more synergy
Reported Bliss excess is given for each of the following molecules.

# molecule, Bliss excess
rows = [
    ("C=CCn1c(=O)c2cnc(Nc3ccc(N4CCN(C)CC4)cc3)nc2n1-c1cccc(C(C)(C)O)n1 [AZD1775] + O=C(c1cc(Cc2n[nH]c(=O)c3ccccc23)ccc1F)N1CCN(C(=O)C2CC2)CC1 [Olaparib] (first compound max 1 µM, partner max 10 µM)", -0.0305),
    ("Cc1c2c(nn1C)CSCc1cc(n(C)n1)CSc1cc(c3ccccc3c1)OCCCc1c(C(=O)O)n(C)c3c-2c(Cl)ccc13 [AZD5991] + CS(=O)(=O)CCNCc1ccc(-c2ccc3ncnc(Nc4ccc(OCc5cccc(F)c5)c(Cl)c4)c3c2)o1 [Lapatinib] (first compound max 1 µM, 7x7, partner max 10 µM)", 0.0138),
    ("CN(CCO)CC[C@H](CSc1ccccc1)Nc1ccc(S(=O)(=O)NC(=O)c2ccc(N3CCC([C@@H](O)c4ccccc4-c4ccc(Cl)cc4)CC3)cc2)cc1S(=O)(=O)C(F)(F)F [AZD4320] + Cn1cnc2c(F)c(Nc3ccc(Br)cc3Cl)c(C(=O)NOCCO)cc21 [Selumetinib] (first compound max 1 µM, 7x7, partner max 3 µM)", 0.051),
]

---

tested on: GA-10 (Burkitt's Lymphoma); test: Bliss excess, mean over the matrix (fraction); higher = more synergy
Binary call on Bliss excess: Met from -0.06 upward, Not met beneath that.

# compound, assigned.label
measured = [
    ("CCN(CCO)CCCOc1ccc2c(Nc3cc(CC(=O)Nc4cccc(F)c4)[nH]n3)ncnc2c1 [AZD2811] + C[C@@H]1COCCN1C2=NC(=NC(=C2)C3(CC3)[S@](=N)(=O)C)C4=C5C=CNC5=NC=C4 [AZD6738] (first compound max 1 µM, 7x7, partner max 10 µM)", "Met"),
    ("CC1(C)CCC(CN2CCN(c3ccc(C(=O)NS(=O)(=O)c4ccc(NCC5CCOCC5)c([N+](=O)[O-])c4)c(Oc4cnc5[nH]ccc5c4)c3)CC2)=C(c2ccc(Cl)cc2)C1 [Venetoclax] + Cn1cnc2c(F)c(Nc3ccc(Br)cc3Cl)c(C(=O)NOCCO)cc21 [Selumetinib] (first compound max 1 µM, 7x7, partner max 3 µM)", "Not met"),
    ("COc1cccc(OCCCN)c1-c1cc(Nc2cnc(C#N)cn2)n[nH]1 [Prexasertib] + CN(C)CCCOc1ccc(-c2ccc3ncc4c(c3c2)n(C2CCOCC2)c(=O)n4C)cn1 [AZD0156] (first compound max 1 µM, 7x7, partner max 1 µM)", "Met"),
    ("Cc1c2c(nn1C)CSCc1cc(n(C)n1)CSc1cc(c3ccccc3c1)OCCCc1c(C(=O)O)n(C)c3c-2c(Cl)ccc13 [AZD5991] + CCN(CCO)CCCOc1ccc2c(Nc3cc(CC(=O)Nc4cccc(F)c4)[nH]n3)ncnc2c1 [AZD2811] (first compound max 1 µM, 7x7, partner max 1 µM)", "Met"),
    ("CC1(C)CCC(CN2CCN(c3ccc(C(=O)NS(=O)(=O)c4ccc(NCC5CCOCC5)c([N+](=O)[O-])c4)c(Oc4cnc5[nH]ccc5c4)c3)CC2)=C(c2ccc(Cl)cc2)C1 [Venetoclax] + C=CCn1c(=O)c2cnc(Nc3ccc(N4CCN(C)CC4)cc3)nc2n1-c1cccc(C(C)(C)O)n1 [AZD1775] (first compound max 1 µM, partner max 1 µM)", "Met"),
]
